# Tested on: anti-Factor Xa Activity of Unfractionated Heparin
# PROCEDURE_DETAILS: Anti-Factor Xa assay: neutralization of unfractionated heparin in citrate or plasma in vitro
# Assay type: biochemical, human
# CONDITION_DESCRIPTION: 12 μg/ml Peptide; Citrate; UFH 0.7 U/ml
Ends that are not written are not given here.
REPORTED_METRIC: Unfractionated Heparin Neutralized
Please answer using the number first and the unit second.

Recorded results for 3 substances are shown here.
substance="ARKKAAKAARKKAAKAARKKAAKAARKKAAKA [(ARKKAAKA)4]" measured_result="0.370 ± 0.020 U/ml"
substance="ARKKAAKAAAAAAAAAAAAAAAAAARKKAAKA [ARKKAAKA(A16)ARKKAAKA, reference compound]" measured_result="0.047 ± 0.025 U/ml"
substance="ARKKAAKAARKKAAKAARKKAAKAVLVLVL [(ARKKAAKA)3VLVLVL]" measured_result="0.595 ± 0.021 U/ml"

Would you mind telling me what Unfractionated Heparin Neutralized value was observed for ARKKAAKAARKKAAKAARKKAAKAVLVLVLVL [(ARKKAAKA)3VLVLVLVL] ?
0.505 ± 0.049 U/ml

Would you mind telling me what Unfractionated Heparin Neutralized value was observed for VLVL(ARKKAAKA)3ARKKCAKA (VLVLARKKAAKAARKKAAKAARKKAAKAARKKCAKA; Fragment) ?
0.534 ± 0.056 U/ml

###

# Tested on: anti-Factor Xa Activity of the Low Molecular Weight Heparin Lovenox ®
# PROCEDURE_DETAILS: Anti-Factor Xa assay (Stachrom Heparin kit): neutralization of Lovenox in citrate or plasma in vitro
# Assay type: biochemical, human
# CONDITION_DESCRIPTION: 120 μg/ml Peptide; C Plasma; Lovenox 0.7 U/ml
Ends that are not written are not given here.
Reported values of Lovenox ® Neutralized for individual entries

substance="ARKKAAKAARKKAAKAARKKAAKAVLVLVLVL [(ARKKAAKA)3VLVLVLVL]" reported_metric="Lovenox ® Neutralized" measured_result="0.485 ± 0.022 U/ml"
substance="ARKKAAKAAAAAAAAAAAAAAAAAARKKAAKA [ARKKAAKA(A16)ARKKAAKA, reference compound]" reported_metric="Lovenox ® Neutralized" measured_result="0.003 ± 0.002 U/ml"
substance="VLVL(ARKKAAKA)3ARKKCAKA (VLVLARKKAAKAARKKAAKAARKKAAKAARKKCAKA; Fragment)" reported_metric="Lovenox ® Neutralized" measured_result="0.483 ± 0.044 U/ml"
substance="ARKKAAKAARKKAAKAARKKAAKAARKKAAKA [(ARKKAAKA)4]" reported_metric="Lovenox ® Neutralized" measured_result="0.570 ± 0.029 U/ml"

As a next step, examine the substance that follows.
Would you mind telling me what Lovenox ® Neutralized value was observed for ARKKAAKAARKKAAKAARKKAAKAVLVLVL [(ARKKAAKA)3VLVLVL] ?
0.471 ± 0.013 U/ml

###

# Tested on: anti-Factor Xa Activity of Unfractionated Heparin
# PROCEDURE_DETAILS: Anti-Factor Xa assay: neutralization of unfractionated heparin in citrate or plasma in vitro
# Format: biochemical, human
# CONDITION_DESCRIPTION: 1 μg/ml Peptide; A Plasma; UFH 0.7 U/ml
Ends that are not written are not given here.
Reported values of Unfractionated Heparin Neutralized for individual entries
Numbers only; they are read as U/ml.

Recorded results for 4 substances are shown here.
substance="ARKKAAKAARKKAAKAARKKAAKAVLVLVL [(ARKKAAKA)3VLVLVL]" reported_metric="Unfractionated Heparin Neutralized" unit_name=U/ml measured_result=0.249
substance="VLVL(ARKKAAKA)3ARKKCAKA (VLVLARKKAAKAARKKAAKAARKKAAKAARKKCAKA; Fragment)" reported_metric="Unfractionated Heparin Neutralized" unit_name=U/ml measured_result=0.240
substance="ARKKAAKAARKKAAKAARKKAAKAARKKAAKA [(ARKKAAKA)4]" reported_metric="Unfractionated Heparin Neutralized" unit_name=U/ml measured_result=0.069
substance="ARKKAAKAARKKAAKAARKKAAKAVLVLVLVL [(ARKKAAKA)3VLVLVLVL]" reported_metric="Unfractionated Heparin Neutralized" unit_name=U/ml measured_result=0.258

As a next step, examine the substance that follows.
Would you mind telling me what Unfractionated Heparin Neutralized value was observed for ARKKAAKAAAAAAAAAAAAAAAAAARKKAAKA [ARKKAAKA(A16)ARKKAAKA, reference compound] ?
0.080

###

Reported values of Unfractionated Heparin Neutralized for individual entries
# System: anti-Factor Xa Activity of Unfractionated Heparin
# PROCEDURE_DETAILS: Anti-Factor Xa assay: neutralization of unfractionated heparin in citrate or plasma in vitro
# Type: biochemical, human
# CONDITION_DESCRIPTION: 6 μg/ml Peptide; A Plasma; UFH 0.7 U/ml
Ends that are not written are not given here.
Please answer using the number first and the unit second.

Would you mind telling me what Unfractionated Heparin Neutralized value was observed for ARKKAAKAAAAAAAAAAAAAAAAAARKKAAKA [ARKKAAKA(A16)ARKKAAKA, reference compound] ?
0.045 ± 0.029 U/ml

Would you mind telling me what Unfractionated Heparin Neutralized value was observed for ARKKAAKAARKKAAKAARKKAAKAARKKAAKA [(ARKKAAKA)4] ?
0.334 ± 0.016 U/ml

Would you mind telling me what Unfractionated Heparin Neutralized value was observed for ARKKAAKAARKKAAKAARKKAAKAVLVLVLVL [(ARKKAAKA)3VLVLVLVL] ?
0.580 ± 0.067 U/ml

Would you mind telling me what Unfractionated Heparin Neutralized value was observed for VLVL(ARKKAAKA)3ARKKCAKA (VLVLARKKAAKAARKKAAKAARKKAAKAARKKCAKA; Fragment) ?
0.574 ± 0.014 U/ml

Would you mind telling me what Unfractionated Heparin Neutralized value was observed for ARKKAAKAARKKAAKAARKKAAKAVLVLVL [(ARKKAAKA)3VLVLVL] ?
0.667 ± 0.019 U/ml

###

# Tested on: anti-Factor Xa Activity of the Low Molecular Weight Heparin Lovenox ®
# PROCEDURE_DETAILS: Anti-Factor Xa assay (Stachrom Heparin kit): neutralization of Lovenox in citrate or plasma in vitro
# Type: biochemical, human
# CONDITION_DESCRIPTION: 120 μg/ml Peptide; Citrate; Lovenox 0.7 U/ml
Ends that are not written are not given here.
Reported values of Lovenox ® Neutralized for individual entries
Numbers only; they are read as U/ml.

Recorded results for 2 substances are shown here.
substance="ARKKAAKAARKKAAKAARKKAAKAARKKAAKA [(ARKKAAKA)4]" measured_result=0.509
substance="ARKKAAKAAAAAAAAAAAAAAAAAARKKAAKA [ARKKAAKA(A16)ARKKAAKA, reference compound]" measured_result=0.069

As a next step, examine the substance that follows.
Would you mind telling me what Lovenox ® Neutralized value was observed for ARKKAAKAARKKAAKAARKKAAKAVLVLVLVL [(ARKKAAKA)3VLVLVLVL] ?
0.463

###

# Test system: Lovenox ® Activity in Blood from Patients Treated with Lovenox ®
# PROCEDURE_DETAILS: Neutralizing Lovenox activity in blood from patients treated with Lovenox (anti-Factor Xa assay)
# Assay type: biochemical, human
# CONDITION_DESCRIPTION: Peptide 12 μg/ml; blood of Lovenox-treated Patient Number 10
Ends that are not written are not given here.
REPORTED_METRIC: Lovenox ® Neutralized (U/ml)
Numbers only; they are read as U/ml.

Recorded results for 3 substances are shown here.
substance="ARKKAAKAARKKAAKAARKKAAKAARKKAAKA [(ARKKAAKA)4]" measured_target="Lovenox ® Activity in Blood from Patients Treated with Lovenox ®" measured_result=0.194
substance="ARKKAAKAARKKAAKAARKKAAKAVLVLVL [(ARKKAAKA)3VLVLVL]" measured_target="Lovenox ® Activity in Blood from Patients Treated with Lovenox ®" measured_result=0.133
substance=VLVLARKKAAKAPARKKAAKAVLVL measured_target="Lovenox ® Activity in Blood from Patients Treated with Lovenox ®" measured_result=0.025

Would you mind telling me what Lovenox ® Neutralized value was observed for VLVL(ARKKAAKA)3ARKKCAKA (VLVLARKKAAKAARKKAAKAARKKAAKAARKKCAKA; Fragment) ?
0.184

Would you mind telling me what Lovenox ® Neutralized value was observed for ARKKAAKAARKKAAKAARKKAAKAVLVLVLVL [(ARKKAAKA)3VLVLVLVL] ?
0.436

Would you mind telling me what Lovenox ® Neutralized value was observed for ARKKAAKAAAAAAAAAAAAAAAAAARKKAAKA [ARKKAAKA(A16)ARKKAAKA, reference compound] ?
0.062

###

Reported values of Lovenox ® Neutralized for individual entries
# System: anti-Factor Xa Activity of the Low Molecular Weight Heparin Lovenox ®
# PROCEDURE_DETAILS: Anti-Factor Xa assay (Stachrom Heparin kit): neutralization of Lovenox in citrate or plasma in vitro
# Assay type: biochemical, human
# CONDITION_DESCRIPTION: 6 μg/ml Peptide; Citrate; Lovenox 0.7 U/ml
Ends that are not written are not given here.

Recorded results for 3 substances are shown here.
substance="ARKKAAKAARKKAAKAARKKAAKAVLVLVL [(ARKKAAKA)3VLVLVL]" measured_result="0.298 ± .049 U/ml"
substance="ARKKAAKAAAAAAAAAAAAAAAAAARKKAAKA [ARKKAAKA(A16)ARKKAAKA, reference compound]" measured_result="0.013 ± 0.007 U/ml"
substance="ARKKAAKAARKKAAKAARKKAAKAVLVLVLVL [(ARKKAAKA)3VLVLVLVL]" measured_result="0.288 ± 0.045 U/ml"

Would you mind telling me what Lovenox ® Neutralized value was observed for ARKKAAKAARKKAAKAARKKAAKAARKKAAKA [(ARKKAAKA)4] ?
0.376 ± 0.019 U/ml

Would you mind telling me what Lovenox ® Neutralized value was observed for VLVL(ARKKAAKA)3ARKKCAKA (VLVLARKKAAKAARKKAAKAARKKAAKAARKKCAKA; Fragment) ?
0.432 ± .086 U/ml
